Some compounds, each annotated with its measured growth.
tested on: OVCAR-5 ovarian; assay: NCI-60 one-dose screen, 48 h (100 = growth as untreated, 0 = no growth, -100 = all killed); settings: 10 µM unless noted
About 83,000 compounds went through this panel and 20% of them were active in at least one assay; those are over-represented in the sample as a whole.
recorded-metric: growth (%)

>>> df
                                   compound  subject_of_test  recorded_metric  experimental_result
0                   CCCSc1nc(N)nc2nc[nH]c12  OVCAR-5 ovarian           growth                  108
1  O=C1CN(Cc2ccc(C(=O)NO)cc2)C(=O)[C@@H](Cc2ccccc2)N1  OVCAR-5 ovarian           growth                  101
2  O=C(Nc1ccc(C(=O)/C=C/c2ccc(N3CCOCC3)cc2)cc1)Nc1ccc([N+](=O)[O-])cc1  OVCAR-5 ovarian           growth                 94.4
3  CC(C)(C)c1cc(C(=O)N2CCC(C(=O)NCCN)CC2)cc(C(C)(C)C)c1  OVCAR-5 ovarian           growth                 98.9
4  CN(C)CCCNc1nc(-c2cccc(C(Cl)(Cl)Cl)c2)nc(C(Cl)(Cl)Cl)n1  OVCAR-5 ovarian           growth                  106
5  CCCCCC1CCCCN1C(=O)OCCCC (centres undefined)  OVCAR-5 ovarian           growth                  101
6  Cc1c(Cn2cc(COc3ccc(Br)cc3)nn2)c(C)c(Cn2cc(COc3ccc(Br)cc3)nn2)c(C)c1Cn1cc(COc2ccc(Br)cc2)nn1  OVCAR-5 ovarian           growth                 96.8
7  O=S(=O)(/N=c1/n(-c2ccccc2)nc2n1CCN2C1=NCCN1)c1ccc(-c2ccccc2)cc1  OVCAR-5 ovarian           growth                 96.6
8  OC(c1ccc(Cl)cc1)(c1ccc(Cl)cc1)C(O)(c1ccc(Cl)cc1)c1ccc(Cl)cc1  OVCAR-5 ovarian           growth                 71.7
